System: Plasmodium falciparum
Experiment: Antimalarial activity against chloroquine-sensitive Plasmodium falciparum NF54
Type: functional, organism-based
pIC50: −log10 of the molar value.
Property: pIC50

I = FC(F)(F)c1cc(-n2cc(CN3CCN(C4CCCCC4)CC3)nn2)c2cccc(C(F)(F)F)c2n1
II = FC(F)(F)c1cc(-n2cc(CN3CCN(C4C5CC6CC(C5)CC4C6)CC3)nn2)c2cccc(C(F)(F)F)c2n1 (stereo not drawn)
Q) Sorting by pIC50 in descending order, would I or II appear first? // output: label of the selected item
A) II

###

Test system: Plasmodium falciparum
Experiment: Antimalarial activity against chloroquine-sensitive Plasmodium falciparum NF54
Format: functional, organism-based
pIC50: −log10 of the molar value.
Property: pIC50

Look over these answered cases.
{"Compound": "FC(F)(F)c1cc(-n2cc(CNC3C4CC5CC(C4)CC3C5)nn2)c2cccc(C(F)(F)F)c2n1 (stereo not drawn)", "pIC50": 6.00}
{"Compound": "CC(C)N(Cc1cn(-c2cc(C(F)(F)F)nc3c(C(F)(F)F)cccc23)nn1)C(C)C", "pIC50": 5.32}
{"Compound": "FC(F)(F)c1cc(-n2cc(CN3CCN(Cc4c[nH]c5ccccc45)CC3)nn2)c2cccc(C(F)(F)F)c2n1", "pIC50": 5.89}
{"Compound": "FC(F)(F)c1cc(-n2cc(CN3CCN(Cc4ccncc4)CC3)nn2)c2cccc(C(F)(F)F)c2n1", "pIC50": 4.97}
{"Compound": "CC(C)(C)NCc1cn(-c2cc(C(F)(F)F)nc3c(C(F)(F)F)cccc23)nn1", "pIC50": 5.55}

A = FC(F)(F)c1cc(-n2cc(CN(C3CCCCC3)C3CCCCC3)nn2)c2cccc(C(F)(F)F)c2n1
B = FC(F)(F)c1cc(-n2cc(CN3CCN(Cc4ccccc4)CC3)nn2)c2cccc(C(F)(F)F)c2n1
Q) Sorting by pIC50 in descending order, would A or B appear first? // output: label of the selected item
A) A
